// IC50 lookup, one value per entry
System: H1755 cells
Experiment: Cellular phospho-ERK inhibition assay in H1755 cells
Assay type: cell-based
Conditions: Homo sapiens, NCI-H1755, 2 hours treatment, read-out: H1755 Cell IC50
Where a name gives a salt, the structure may show the parent alone.
Hi! Could you send only the number? It should be in µM, unit omitted.

See these solved cases before continuing.
Cc1c(Nc2c(F)c(F)cc(NS(=O)(=O)N3CCCC3)c2Cl)ccc2ncn(C)c(=O)c12 :: 0.586
O=c1c2c(F)c(Nc3c(F)ccc(NS(=O)(=O)N4CCCC4)c3Cl)ccc2ncn1CF [Example 42, trifluoroacetate] :: 0.042
Cn1cnc2ccc(Nc3c(F)ccc(NS(=O)(=O)N4CC(COC(F)F)C4)c3Cl)c(F)c2c1=O [Example 139, trifluoroacetate] :: 0.01

Let's switch to this molecule now.
Incoming: State its IC50 for this molecule: CO[C@@H]1CCN(S(=O)(=O)Nc2cc(Cl)cc(Nc3ccc4ncn(C)c(=O)c4c3C)c2F)C1
Outgoing: 0.268

###

Target: BCRP (Homo sapiens (Human))
Sequence (Q9UNQ0 whole entry): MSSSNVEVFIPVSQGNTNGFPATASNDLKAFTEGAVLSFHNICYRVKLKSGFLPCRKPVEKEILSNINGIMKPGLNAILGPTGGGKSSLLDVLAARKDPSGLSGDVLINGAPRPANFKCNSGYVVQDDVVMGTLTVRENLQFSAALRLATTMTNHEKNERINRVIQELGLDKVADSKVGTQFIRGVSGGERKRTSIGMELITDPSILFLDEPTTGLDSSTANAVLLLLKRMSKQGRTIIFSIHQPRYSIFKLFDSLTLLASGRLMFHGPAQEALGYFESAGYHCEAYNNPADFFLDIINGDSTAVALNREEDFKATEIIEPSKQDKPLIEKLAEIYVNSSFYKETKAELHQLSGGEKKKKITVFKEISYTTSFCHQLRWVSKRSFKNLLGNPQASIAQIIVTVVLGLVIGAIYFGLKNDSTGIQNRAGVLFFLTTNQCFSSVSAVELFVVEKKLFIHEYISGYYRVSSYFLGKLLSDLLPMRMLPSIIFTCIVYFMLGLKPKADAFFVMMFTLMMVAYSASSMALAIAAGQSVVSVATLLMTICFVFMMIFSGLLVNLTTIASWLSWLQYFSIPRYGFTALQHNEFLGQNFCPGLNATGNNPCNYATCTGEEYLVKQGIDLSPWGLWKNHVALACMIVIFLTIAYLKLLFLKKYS
Experiment: BCRP MDCKII permeability assay: efflux ratio
Assay type: in vitro ADME
Conditions: dog
Where a name gives a salt, the structure may show the parent alone.
Readout Type: efflux ratio at 2 h, 1 µM
Reply with the value as a number alone.

CO[C@@H]1CCN(S(=O)(=O)Nc2ccc(F)c(Oc3ccc4ncn(C)c(=O)c4c3F)c2Cl)C1 [Example 48, trifluoroacetate] :: 1.7
CCC1CCN(S(=O)(=O)Nc2ccc(F)c(Nc3ccc4ncn(C)c(=O)c4c3Cl)c2Cl)C1 (stereo not shown) [Example 94, trifluoroacetate] :: 1.7
Cc1c(Nc2c(F)c(F)cc(NS(=O)(=O)N3CC[C@@H](F)C3)c2Cl)ccc2ncn(C)c(=O)c12 :: 2.1
CCN(C)S(=O)(=O)Nc1ccc(F)c(Nc2ccc3ncn(C)c(=O)c3c2F)c1Cl :: 2.1
Cc1c(Nc2c(F)c(F)cc(NS(=O)(=O)N3CCCC3)c2Cl)ccc2ncn(C)c(=O)c12 :: 1.1
COC1CN(S(=O)(=O)Nc2ccc(F)c(Nc3ccc4ncn(C)c(=O)c4c3Cl)c2Cl)C1 :: 5.3

Incoming: State its efflux ratio at 2 h, 1 µM for this compound: CCN(C)S(=O)(=O)Nc1cc(F)c(F)c(Nc2ccc3ncn(C)c(=O)c3c2F)c1Cl
Outgoing: 1.6

###

Target: P-gp (MDR1) (Homo sapiens (Human), UniProt P08183)
Sequence (P08183 whole entry, species assumed): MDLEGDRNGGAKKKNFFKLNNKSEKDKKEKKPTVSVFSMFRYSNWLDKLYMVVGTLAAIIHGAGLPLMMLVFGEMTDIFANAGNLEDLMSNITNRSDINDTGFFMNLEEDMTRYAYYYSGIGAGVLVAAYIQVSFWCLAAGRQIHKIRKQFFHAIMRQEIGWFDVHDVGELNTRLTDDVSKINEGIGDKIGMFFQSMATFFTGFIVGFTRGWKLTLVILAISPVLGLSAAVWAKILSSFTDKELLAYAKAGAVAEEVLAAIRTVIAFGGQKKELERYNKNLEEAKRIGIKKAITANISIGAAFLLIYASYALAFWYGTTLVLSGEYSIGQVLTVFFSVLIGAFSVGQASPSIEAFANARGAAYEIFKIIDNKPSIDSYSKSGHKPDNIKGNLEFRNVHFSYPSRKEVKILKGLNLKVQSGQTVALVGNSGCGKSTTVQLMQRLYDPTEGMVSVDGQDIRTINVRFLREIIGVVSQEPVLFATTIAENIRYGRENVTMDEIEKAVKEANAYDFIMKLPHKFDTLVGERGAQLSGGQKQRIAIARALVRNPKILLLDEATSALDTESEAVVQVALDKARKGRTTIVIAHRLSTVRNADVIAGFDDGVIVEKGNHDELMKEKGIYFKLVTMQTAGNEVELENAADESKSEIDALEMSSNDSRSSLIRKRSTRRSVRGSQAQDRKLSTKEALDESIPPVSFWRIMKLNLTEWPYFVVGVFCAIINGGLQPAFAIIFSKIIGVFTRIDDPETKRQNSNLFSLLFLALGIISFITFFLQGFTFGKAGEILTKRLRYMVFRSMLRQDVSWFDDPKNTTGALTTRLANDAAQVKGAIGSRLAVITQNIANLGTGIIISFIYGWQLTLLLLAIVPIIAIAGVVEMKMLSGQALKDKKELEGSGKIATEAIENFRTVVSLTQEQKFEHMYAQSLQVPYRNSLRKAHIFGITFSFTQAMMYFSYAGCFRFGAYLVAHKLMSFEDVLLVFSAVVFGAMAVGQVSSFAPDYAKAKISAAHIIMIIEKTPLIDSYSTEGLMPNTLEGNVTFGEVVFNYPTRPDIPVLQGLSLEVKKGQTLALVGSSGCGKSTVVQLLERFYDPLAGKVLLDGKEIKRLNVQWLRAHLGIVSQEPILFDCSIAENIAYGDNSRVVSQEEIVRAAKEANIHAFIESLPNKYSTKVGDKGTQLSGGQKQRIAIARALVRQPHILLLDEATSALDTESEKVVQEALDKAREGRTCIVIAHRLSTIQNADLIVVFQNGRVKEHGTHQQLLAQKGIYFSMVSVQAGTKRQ
Experiment: MDR1 LLC-PK1 permeability assay: efflux ratio
Format: in vitro ADME
Settings: pig
Counter-ions that a name gives are not always drawn.
// label = Condition met if efflux ratio at 2 h, 1 µM is not less than 2, otherwise Condition not met

Some entries whose results are on file:
Cn1cnc2ccc(Nc3c(F)ccc(NS(=O)(=O)N4CC(COC(F)F)C4)c3Cl)c(F)c2c1=O [Example 139, trifluoroacetate] :: Condition met
CO[C@@H]1CCN(S(=O)(=O)Nc2cc(F)c(F)c(Nc3ccc4ncn(C)c(=O)c4c3F)c2Cl)C1 [Example 47, trifluoroacetate] :: Condition met

Incoming: Quick check: does Cn1cnc2ccc(Nc3c(F)ccc(NS(=O)(=O)N4CC(F)C4)c3Cl)c(Cl)c2c1=O have efflux ratio at 2 h, 1 µM greater than or equal to 2?
Outgoing: Condition met

Incoming: Quick check: does Cc1c(Nc2c(F)ccc(NS(=O)(=O)N3CC[C@@H](OC(F)F)C3)c2Cl)ccc2ncn(C)c(=O)c12 have efflux ratio at 2 h, 1 µM greater than or equal to 2?
Outgoing: Condition not met

Incoming: Quick check: does Cn1cnc2ccc(Nc3c(F)ccc(NS(=O)(=O)N4CC5(CCC5)C4)c3Cl)c(Cl)c2c1=O [Example 158, trifluoroacetate] have efflux ratio at 2 h, 1 µM greater than or equal to 2?
Outgoing: Condition not met
